Assay: cells
Settings: Mus musculus, B16-4A5, 72 h, read-out: INH
Description: Inhibition of melanogenesis in theophylline-stimulated mouse B16-4A5 cells at 10 uM after 72 hrs
Quantity measured: inhibition at 10 µM (%)

INSERT INTO measurements (smiles, value_measured) VALUES
  ('OC[C@H]1O[C@@H](Oc2ccc(O)cc2)[C@H](O)[C@@H](O)[C@@H]1O', 6.7),
  ('O=c1c(O)c(-c2ccccc2)oc2cc(O)cc(O)c12', 43.4),
  ('O[C@H](CCc1ccccc1)C[C@H](O)CCc1ccccc1', 7.2),
  ('COc1cc(CCC(C)=O)ccc1O', 6.1),
  ('O=c1c(O)c(-c2ccc(O)cc2)oc2cc(O)cc(O)c12', 23.4),
  ('COc1cc(CC[C@@H](O)CC(=O)CCc2ccccc2)ccc1O', 23.4);
